Test: Acute toxicity in po dosed rat assessed as mortality
Assay type: organism-based
Conditions: in vivo
observationType: LD50

{"smilesCode": "CC(C)(C)c1nnc(-c2nn(-c3ccccc3Cl)c(-c3ccc(Br)cc3)c2Cn2cncn2)s1", "result": "> 2000 mg/kg"}

----------
pIC50: −log10 of the molar value.
# pIC50 measurements, system: Cannabinoid receptor 1 (Rattus norvegicus, UniProt P20272)
# Sequence (P20272 whole entry): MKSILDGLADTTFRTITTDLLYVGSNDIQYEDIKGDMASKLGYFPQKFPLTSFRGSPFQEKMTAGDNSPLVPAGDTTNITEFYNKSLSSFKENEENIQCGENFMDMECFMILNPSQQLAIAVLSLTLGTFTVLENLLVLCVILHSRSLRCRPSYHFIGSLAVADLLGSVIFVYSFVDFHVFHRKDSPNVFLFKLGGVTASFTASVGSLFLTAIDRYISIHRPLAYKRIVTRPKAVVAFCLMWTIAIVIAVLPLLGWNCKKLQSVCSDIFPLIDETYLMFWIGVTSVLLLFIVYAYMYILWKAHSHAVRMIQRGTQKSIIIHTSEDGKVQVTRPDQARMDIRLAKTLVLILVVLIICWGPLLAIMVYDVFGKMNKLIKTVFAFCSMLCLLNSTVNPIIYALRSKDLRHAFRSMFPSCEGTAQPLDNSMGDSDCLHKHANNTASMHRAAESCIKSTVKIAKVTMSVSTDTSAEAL

{"smilesCode": "CC(C)(C)c1nnc(-c2nn(-c3ccc(Cl)cc3Cl)c(-c3ccc(Br)cc3)c2Cn2cncn2)s1", "pIC50": 8.81}
{"smilesCode": "FC(F)(F)C1(c2nnc(-c3nn(-c4ccc(Cl)cc4Cl)c(-c4ccc(Br)cc4)c3Cn3cncn3)s2)CCC1", "pIC50": 8.49}
{"smilesCode": "FC(F)(F)c1ccccc1-n1nc(-c2nnc(C3(C(F)(F)F)CCC3)s2)c(Cn2cncn2)c1-c1ccc(Br)cc1", "pIC50": 8.36}
{"smilesCode": "FC(F)(F)c1ccccc1-n1nc(-c2nnc(C3(C(F)(F)F)CCC3)s2)c(Cn2cncn2)c1-c1ccc(Cl)cc1", "pIC50": 8.19}
{"smilesCode": "FC(F)(F)C1(c2nnc(-c3nn(-c4ccccc4Cl)c(-c4ccc(Cl)cc4)c3Cn3cncn3)s2)CC1", "pIC50": 8.78}
{"smilesCode": "Clc1ccc(-n2nc(-c3nnc(C4(c5ccccc5)CC4)s3)c(Cn3cncn3)c2-c2ccc(Br)cc2)c(Cl)c1", "pIC50": 8.65}
{"smilesCode": "FC(F)(F)C1(c2nnc(-c3nn(-c4ccccc4Cl)c(-c4ccc(Br)cc4)c3Cn3cncn3)s2)CC1", "pIC50": 9.00}
{"smilesCode": "CC1(c2nnc(-c3nn(-c4ccc(Cl)cc4Cl)c(-c4ccc(Br)cc4)c3Cn3cncn3)s2)CC1", "pIC50": 8.54}

----------
In what follows, each item is paired with its pIC50 for Cytochrome P450 2C9 (Homo sapiens).
pIC50: −log10 of the molar value.

{"compound": "CC(C)(C)c1nnc(-c2nn(-c3ccccc3Cl)c(-c3ccc(Br)cc3)c2Cn2cncn2)s1", "relationOperator": "<", "pIC50": 4.70}
{"compound": "CC(C)(C)c1nnc(-c2nn(-c3ccc(Cl)cc3Cl)c(-c3ccc(Br)cc3)c2Cn2cncn2)s1", "relationOperator": "=", "pIC50": 5.59}
{"compound": "C[C@H](NC(=O)C(C)(C)Oc1ccc(C(F)(F)F)cn1)[C@@H](Cc1ccc(Cl)cc1)c1cccc(C#N)c1 [TARANABANT]", "relationOperator": "=", "pIC50": 6.03}
{"compound": "FC(F)(F)C1(c2nnc(-c3nn(-c4ccc(Cl)cc4Cl)c(-c4ccc(Cl)cc4)c3Cn3cncn3)s2)CCC1", "relationOperator": "<", "pIC50": 4.70}

----------
Experiment: Oral bioavailability in Sprague-Dawley rat at 5 mg/kg, po
Format: ADME, organism-based
Details: in vivo

{"molecule": "C[C@H](NC(=O)C(C)(C)Oc1ccc(C(F)(F)F)cn1)[C@@H](Cc1ccc(Cl)cc1)c1cccc(C#N)c1 [TARANABANT]", "bioavailability": "67.6%"}
{"molecule": "CC(C)(C)c1nnc(-c2nn(-c3ccccc3Cl)c(-c3ccc(Br)cc3)c2Cn2cncn2)s1", "bioavailability": "61.7%"}
{"molecule": "Cc1c(C(=O)NN2CCCCC2)nn(-c2ccc(Cl)cc2Cl)c1-c1ccc(Cl)cc1 [RIMONABANT]", "bioavailability": "53.1%"}
